# EXPERIMENTAL TARGET: Prostaglandin E synthase (Homo sapiens)
# RUN DESCRIPTION: Inhibition of mPGES-1 obtained from IL-beta stimulated human A549 cells microsomes assessed as residual activity by measuring conversion of PGH2 to PGE2 at 10 uM by cell-free RP-HPLC method
# STUDY CONDITIONS: Microsome
Kindly apply the following: label 1 if Activity is less than 80%, label 0 in every other case.

INSERT INTO results (molecule, class_assignment) VALUES
  ('Oc1cccc(-c2nc(-c3ccc(-c4ccsc4)cc3)no2)c1', 'label 0');

Problem: Could you please tell me whether Activity recorded for Oc1cccc(CCc2nc(-c3ccc(-c4ccsc4)cc3)no2)c1 is less than 80%?
Result: label 1

Problem: Could you please tell me whether Activity recorded for N[C@@H](Cc1ccc(O)cc1)c1nc(-c2ccc(-c3ccsc3)cc2)no1 is less than 80%?
Result: label 0

Problem: Could you please tell me whether Activity recorded for N[C@H](c1ccc(O)cc1)c1nc(-c2ccc(-c3ccsc3)cc2)no1 is less than 80%?
Result: label 1

Problem: Could you please tell me whether Activity recorded for Oc1c(F)c(F)cc(-c2nc(-c3ccc(-c4ccsc4)cc3)no2)c1F is less than 80%?
Result: label 1
